Measured clearance values are reported for all entries that follow.
# Experiment: PK, intravenous administration
# Type: in vivo
# Study conditions: rat, plasma, male Sprague Dawley rats, dose about 1 mg/kg
# output: bare number, implied unit L/h/kg

Solved cases below.
CN1CCC2(C1)CN(S(=O)(=O)c1nnc(Nc3c(-c4ccnc(OC(F)F)c4)ccc4c3CCO4)[nH]1)C2    4.57
COc1cc(-c2ccc3c(c2Nc2nnc(S(=O)(=O)N4CC5(CCN(C)C5)C4)[nH]2)CCC3)ccn1    7.26
CCN(CC)CCCS(=O)(=O)c1nnc(Nc2c(-c3ccnc(OC)c3)ccc3c2CCC3)[nH]1    4.76

# clearance (compound: Cn1ccc(S(=O)(=O)c2nnc(Nc3c4c(cc5c3CCC5)CCC4)[nH]2)n1 ) is 1.15

Notebook: CN1CCCC1CCS(=O)(=O)c1nnc(Nc2c3c(cc4c2CCC4)CCC3)[nH]1 (centres unmarked) , clearance read as 3.6

GET /value?item= CC(C)N1CCC2(C1)CN(S(=O)(=O)c1nnc(Nc3c4c(cc5c3CCC5)CCC4)[nH]1)C2 &field=clearance returns 3.58

The measured clearance associated with COc1cc(-c2cc(F)cc(C(C)C)c2Cc2nnc(S(=O)(=O)N3CCC(CN(C)C)C3)[nH]2)ccn1 (centres unmarked) reads 6.18

CNCCCS(=O)(=O)c1nnc(Nc2c3c(cc4c2CCC4)CCC3)[nH]1 yielded clearance of 3.67
